test system: NCI/ADR-RES ovarian; experiment: NCI-60 one-dose screen, 48 h (100 = growth as untreated, 0 = no growth, -100 = all killed); conditions: 10 µM unless noted
About 83,000 compounds went through this panel and 20% of them were active in at least one assay; those are over-represented in the sample as a whole.
In plain terms, low growth, meaning strictly below 80%, gives fulfilled, and everything else gives not fulfilled.

compound=N#Cc1c(-c2ccccc2)cc(-c2ccc(Nc3nc(Nc4ccc(Cl)cc4)nc(Nc4ccc(Cl)cc4)n3)cc2)nc1N assayed_target="NCI/ADR-RES ovarian" category_label=fulfilled
compound="COc1ccc(C2CC(c3ccc(Nc4nc(Nc5ccccc5)nc(Nc5ccccc5)n4)cc3)=NN2C(C)=O)cc1 (configuration not stated)" assayed_target="NCI/ADR-RES ovarian" category_label="not fulfilled"
compound=CCOc1ccc(NC(=O)CSc2oc(-c3ccccc3)nc2S(=O)(=O)c2ccc(C)cc2)cc1 assayed_target="NCI/ADR-RES ovarian" category_label=fulfilled
compound=CC(=O)n1nc(C(=O)OC(C)(C)c2ccccc2)c2ccccc21 assayed_target="NCI/ADR-RES ovarian" category_label="not fulfilled"
compound=CCOC(=O)NC(C)C assayed_target="NCI/ADR-RES ovarian" category_label="not fulfilled"
compound=CCNCCNc1cc(-c2ccc(C(F)(F)F)cc2)c(C#N)c2nc3ccccc3n12 assayed_target="NCI/ADR-RES ovarian" category_label=fulfilled
compound=O=c1c2ccccc2n2cnc3ccc(Cl)c1c32 assayed_target="NCI/ADR-RES ovarian" category_label="not fulfilled"
compound=O=C(/C=C/c1cccs1)Nc1ncc(Cc2ccccc2F)s1 assayed_target="NCI/ADR-RES ovarian" category_label=fulfilled
compound=COc1ccc(C/C(C)=C(/c2ccc(OCCN(C)C)cc2)c2ccc(OC(=O)NCc3ccccc3)cc2)cc1 assayed_target="NCI/ADR-RES ovarian" category_label=fulfilled
compound=Cn1cc(-c2ccc3nc(-c4ccc(CC(=O)ONc5cc(C(C)(C)C)on5)cc4)cnc3c2)cn1 assayed_target="NCI/ADR-RES ovarian" category_label=fulfilled
compound=CCCCNC(=O)Oc1ccc(/C(=C(/C)Cc2ccc(OC)cc2)c2ccc(OCCN(CC)CC)cc2)cc1 assayed_target="NCI/ADR-RES ovarian" category_label="not fulfilled"
compound=O=C(Nc1ccccc1O)c1ccc(CNC(=O)c2sccc2Nc2ccnc(C(F)(F)F)c2)cc1 assayed_target="NCI/ADR-RES ovarian" category_label=fulfilled

* * *

tested on: MCF7 breast; experiment: NCI-60 one-dose screen, 48 h (100 = growth as untreated, 0 = no growth, -100 = all killed); settings: 10 µM unless noted
About 83,000 compounds went through this panel and 20% of them were active in at least one assay; those are over-represented in the sample as a whole.
metric.name: growth (%)

smiles_data=CC(=O)c1c(C)nc(SCC(=O)Nc2cccc(O)c2)n1-c1ccc(Cl)cc1 reported=91.1
smiles_data=CN(C)S(=O)(=O)c1cccc(C(=O)Nc2nc(-c3ccc(F)c(F)c3)cs2)c1 reported=48.4
smiles_data=COC(=O)c1nc(-c2ccc(C)cc2)oc1S(=O)(=O)c1cccc(OC)c1 reported=95.6
smiles_data=NC(=O)c1cc(I)ccc1NC(=O)/C=C/c1ccccc1 reported=2.18
smiles_data=O=C(CN1C(=O)S/C(=C\c2ccccc2)C1=O)Nc1ncc(Cc2ccccc2Cl)s1 reported=92.7

* * *

tested on: HS 578T breast; assay: NCI-60 one-dose screen, 48 h (100 = growth as untreated, 0 = no growth, -100 = all killed); conditions: 10 µM unless noted
About 83,000 compounds went through this panel and 20% of them were active in at least one assay; those are over-represented in the sample as a whole.
Catalogue of compounds with associated growth
metric.name: growth (%)

compound="O=CN1N=C(c2cccc(Nc3ccnc4cc(Cl)ccc34)c2)CC1c1ccccc1 (configuration not stated)" metric_name=growth reported=1.24
compound=O=[N+]([O-])c1ccc(O)cc1Br metric_name=growth reported=98.4
compound=Oc1c(Br)cc(Br)c2ccc(Cn3cc(-c4ccc(C(F)(F)F)cc4)nn3)nc12 metric_name=growth reported=101
compound=Cc1ccc(Nc2cc(N)nc(N)n2)cc1Cl metric_name=growth reported=98.3
compound=C=CCn1c(C)nc2ccc(Nc3nc(Nc4ccc5nc(C)n(CC=C)c5c4)c4ccccc4n3)cc21 metric_name=growth reported=-41.4
compound=CC1=NC2=Nn3c(c4cnn(-c5ccccc5)c4n/c3=N\N)NN2C(c2ccccc2)=C1 metric_name=growth reported=80.5
compound=O=C(Nc1ccc(OS(=O)(=O)c2ccc(F)cc2)cc1)C1CCCCCC1 metric_name=growth reported=82.4
compound=O=C(Nc1ccccc1O)c1ccc(CNC(=O)c2sccc2Nc2ccnc(C(F)(F)F)c2)cc1 metric_name=growth reported=14.6
compound=Cc1cccc(/C=C2\CN(C(=O)OC(C)(C)C)C/C(=C\c3cccc(C)c3)C2=O)c1 metric_name=growth reported=96.7
compound=Cc1sc2nc(NCCc3c[nH]c4ccc(Cl)cc34)[nH]c(=O)c2c1C metric_name=growth reported=25.4
compound=COC(=O)c1nc(-c2ccc(C)cc2)oc1S(=O)(=O)c1cccc(OC)c1 metric_name=growth reported=110
compound=S=c1sc2c(Cl)nc(-c3cccnc3)nc2n1-c1ccccc1 metric_name=growth reported=55.9
compound="Cc1ccc(C2=Nc3c(N)ncnc3NC(c3cccc(Nc4ccnc5cc(C(F)(F)F)ccc45)c3)C2)cc1 (configuration not stated)" metric_name=growth reported=43.3
compound=O=C(O)CCCN1C(=O)/C(=C/c2cn(-c3ccccc3)nc2-c2ccc([N+](=O)[O-])cc2)SC1=S metric_name=growth reported=63.6
compound=COCCOc1cc2ncnc(N3CCN(c4ncc(S(=O)(=O)N5CCCCC5)cn4)CC3)c2cc1OCCOC metric_name=growth reported=114
compound=CCOC(=O)c1cc2c(n1C)-c1nc(NC(C)=O)sc1CCC2 metric_name=growth reported=60.5
compound=COc1ccc(OC)c(-c2nc(SCC(=O)c3ccc(C#N)cc3)[nH]c(=O)c2C#N)c1 metric_name=growth reported=102
compound="Nc1n[nH]c2ccc([C@H]3[C@@H]4C5CCC(C5)[C@@H]4c4c(ccc5[nH]ncc45)N3S(=O)(=O)C3CC3)cc12 (some centres not stated)" metric_name=growth reported=22.7
compound="CN(C)CCNC(=O)c1ccc(-c2nc3ccc4[nH]ncc4c3c3c2C2CCC3C2)cc1 (configuration not stated)" metric_name=growth reported=9.56
compound=C#CCOC(=O)/C=C/c1cn(-c2ccccc2)nc1-c1ccc(OC)cc1 metric_name=growth reported=76.9
compound=CCCCNC(=O)CC1=C(C)/C(=C/c2[nH]c(-c3ccc[nH]3)cc2OC)N=C1C metric_name=growth reported=43.1
compound=CC(=O)O[C@@H]1C[C@]2(C(C)C)O[C@@]1(C)[C@@H]1CCC(C)=C1[C@@H]2OC(=O)/C=C/c1ccccc1 metric_name=growth reported=20
compound=O=C1/C(=C/c2ccc([N+](=O)[O-])cc2)COc2ccc(O)cc21 metric_name=growth reported=89.3
compound=C=CC(=O)N1CCN(c2cccc(Oc3nccc(Nc4nnc(-c5ccc(Br)cc5)s4)n3)c2)CC1 metric_name=growth reported=67.5
compound=O=C(Nc1cccc(Cl)c1)Nc1cccc(Cn2c(=O)[nH]c3ccc(Oc4ncccn4)cc3c2=O)c1 metric_name=growth reported=51.8
compound=c1cc2c(ccc3[nH]c(-c4ccc5[nH]ncc5c4)c4c(c32)CCCC4)n1 metric_name=growth reported=75.7
compound=Cc1cccc(CNc2c3ccccc3nc3ccccc23)c1 metric_name=growth reported=30.3
compound=Nc1ncc(-c2ccc3ncnc(Nc4cccc(Cl)c4)c3c2)cn1 metric_name=growth reported=16.4
compound=Cn1cc(-c2csc(-c3cn(C(=O)OC(C)(C)C)c4ccc(Br)cc34)n2)c2ccnc(Cl)c21 metric_name=growth reported=2.06
compound="CCOC(=O)C1=C(C)NC(=O)NC1c1c(Cl)n(CCCl)c2ccccc12 (configuration not stated)" metric_name=growth reported=93.1
compound=C=C(C)[C@@H]1CCC[C@]2(COS(=O)(=O)c3ccc(C)cc3)CC[C@]3(C)[C@@H](CC[C@@H]4[C@@]5(C)CCCNC(C)(C)[C@@H]5CC[C@]43C)[C@@H]12 metric_name=growth reported=61.4
compound=O=c1[nH]c(-c2ccccc2)nc2sc3cc(O)ccc3c12 metric_name=growth reported=89
compound=COc1ccc(-c2ccc(=O)oc2-c2cc(OC)c(OC)c(OC)c2)cc1O metric_name=growth reported=-2.33
compound="CCC(C)(C)C(=O)O[C@H]1C[C@@H](C)C=C2C=C[C@H](C)[C@H](CC[C@@H]3CC(SCCN)CC(=O)O3)[C@H]21 (some centres not stated)" metric_name=growth reported=98.9
compound=Cc1cc(=O)oc2cc(OCc3nn4c(Nc5nc6ccccc6s5)c(-c5ccccc5)nc4s3)ccc12 metric_name=growth reported=78.1
compound=COc1ccc(OC)c(Nc2nnc(-c3ccc(O)c(OC)c3)o2)c1 metric_name=growth reported=39.6
compound=Cc1cc(C(=O)Nc2ncc(Cc3cccc(C(F)(F)F)c3)s2)c2ccccc2n1 metric_name=growth reported=-0.594

Where do these numbers come from? They come from PubChem BioAssay (NCI).
